// provenance: patent US5932709A

test: Solubility of HAR7 in various solvents and solvent systems; assay type: physicochemical; settings: 0.2 m na2hpo4 buffer, aqueous buffer
READOUT: solubility (µg/mL)

> print(dat)
                                   molecule  units  value.measured
1  CC[C@@]1(O)C(=O)OCc2c1cc1n(c2=O)Cc2c-1nc1ccccc1c2CO[C@@H]1C=C[C@H](O)[C@@H](CO)O1 [HAR7]  µg/mL              30

====

assay: Solubility of HAR7 in various solvents and solvent systems; format: physicochemical; details: 20% ethanol/water, organic solvent or mixture
READOUT: solubility (µg/mL)

> print(dat)
                           smiles.structure     readout  units  value.measured
1  CC[C@@]1(O)C(=O)OCc2c1cc1n(c2=O)Cc2c-1nc1ccccc1c2CO[C@@H]1C=C[C@H](O)[C@@H](CO)O1  solubility  µg/mL             380

====

experiment: Solubility of HAR7 in various solvents and solvent systems; assay type: physicochemical; conditions: 5% ethanol/water, organic solvent or mixture
READOUT: solubility (µg/mL)

> print(dat)
                           smiles.structure     readout  units  value.measured
1  CC[C@@]1(O)C(=O)OCc2c1cc1n(c2=O)Cc2c-1nc1ccccc1c2CO[C@@H]1C=C[C@H](O)[C@@H](CO)O1  solubility  µg/mL              80

====

Test: Solubility of HAR7 in various solvents and solvent systems
Assay type: physicochemical
Settings: 0.2 m acetate buffer, aqueous buffer
Experimental: In addition to testing for water solubility, one of the analogs of the present invention, HAR7, was tested for solubility in various other solvents and solvent mixtures, to determine the system which provides the greatest solubility for the analog. The results of those solubility experiments are shown below in Table 2: The solubility of HAR7 in various solvents and solvent systems was measured using one of two experimental methods, depending on the conditions and solvents used. […]
READOUT: solubility (µg/mL)

> print(dat)
                                   compound     readout  value.measured
1  CC[C@@]1(O)C(=O)OCc2c1cc1n(c2=O)Cc2c-1nc1ccccc1c2CO[C@@H]1C=C[C@H](O)[C@@H](CO)O1 [HAR7]  solubility              23

====

# key: entry, value: IC50
system: MCF-7 human breast tumor cells; test: MTT growth inhibition, MCF-7; format: cell-based; settings: MCF7, 144 h, MCF-7, MTT, 6 days, read-out: Growth Inhibitory Activity IC50

COMPOUND	EXPERIMENTAL SYSTEM	IC50, ng/mL
CC[C@@]1(O)C(=O)OCc2c1cc1n(c2=O)Cc2c-1nc1ccccc1c2CO[C@@H]1C=C[C@H](OC(C)=O)[C@@H](COC(C)=O)O1	MCF-7 human breast tumor cells	2.7
CC[C@@]1(O)C(=O)OCc2c1cc1n(c2=O)Cc2c-1nc1ccccc1c2CO[C@@H]1C=C[C@H](O[C@H]2O[C@H](CO)[C@@H](O)[C@H](O)[C@H]2O)[C@@H](CO)O1	MCF-7 human breast tumor cells	111
CC[C@@]1(O)C(=O)OCc2c1cc1n(c2=O)Cc2c-1nc1ccccc1c2CO[C@@H]1C=C[C@H](O[C@H]2O[C@H](COC(C)=O)[C@@H](OC(C)=O)[C@H](OC(C)=O)[C@H]2OC(C)=O)[C@@H](COC(C)=O)O1	MCF-7 human breast tumor cells	10
CC[C@@]1(O)C(=O)OCc2c1cc1n(c2=O)Cc2cc3ccccc3nc2-1 [camptothecin, reference compound]	MCF-7 human breast tumor cells	1
CC[C@@]1(O)C(=O)OCc2c1cc1n(c2=O)Cc2c-1nc1ccccc1c2CO[C@@H]1C=C[C@H](O)[C@@H](CO)O1	MCF-7 human breast tumor cells	6.4
